Form field: solubility thermodynamic (one value per entry).
Assay: Thermodynamic solubility of the compound in thermosol at pH 3.0
Type: physicochemical
Settings: buffer, read-out: Therm_solubility

Ask: # get_value(readout='solubility thermodynamic', item= `COc1ccc(-c2ccn(CC[C@](C)(C(=O)NO)S(C)(=O)=O)c(=O)c2)c(F)c1` )
Result: 82 µg/mL

Ask: Same lookup for `C[C@@](CCn1ccc(-c2ccccc2)cc1=O)(C(=O)NO)S(C)(=O)=O` , please.
Result: 410 µg/mL

More entries:
Ask: # input compound: `C[C@@](CCn1ccc(-c2ccc(-n3nccn3)cc2)cc1=O)(C(=O)NO)S(C)(=O)=O` ; wanted: its solubility thermodynamic
Result: 3.3 µg/mL

Ask: Next: `C[C@@](CCc1ccc(-c2ccccc2)cc1)(C(=O)NO)S(C)(=O)=O`
Result: 7.3 µg/mL

----------
Target: UDP-3-O-acyl-N-acetylglucosamine deacetylase (Pseudomonas aeruginosa (strain ATCC 15692 / PAO1 / 1C / PRS 101 / LMG12228))
Sequence (P47205 whole entry): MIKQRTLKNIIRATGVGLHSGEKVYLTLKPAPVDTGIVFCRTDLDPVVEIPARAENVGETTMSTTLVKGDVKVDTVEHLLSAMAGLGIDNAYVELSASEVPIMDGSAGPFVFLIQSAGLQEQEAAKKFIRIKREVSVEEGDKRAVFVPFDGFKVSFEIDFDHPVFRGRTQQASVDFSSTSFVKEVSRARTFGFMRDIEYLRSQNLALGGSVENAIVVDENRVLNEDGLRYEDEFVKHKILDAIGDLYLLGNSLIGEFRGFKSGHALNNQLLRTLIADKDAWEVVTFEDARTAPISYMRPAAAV
Test: Inhibition of Pseudomonas aeruginosa LpxC expressed in Escherichia coli using UDP-3-O-N-acetylglucosamine substrate measured after 30 mins by mass spectrometry
Below, each entry is listed with its recorded IC50.
Unit nM implied. Number only.

Ask: State the recorded IC50 for this entry: `C[C@@](CCn1ccc(CCc2ccccc2)cc1=O)(C(=O)NO)S(C)(=O)=O`
Result: 6

Ask: Now try `C[C@@](CCn1cc(F)c(-c2ccccc2)cc1=O)(C(=O)NO)S(C)(=O)=O` .
Result: 2.3

Here is the next item to consider.
Ask: Entry under review: `COc1ccccc1-c1ccn(CC[C@](C)(C(=O)NO)S(C)(=O)=O)c(=O)c1` . Reported IC50?
Result: 12

----------
Assay: Thermodynamic solubility of the compound in thermosol at pH 7.4
Format: physicochemical
Settings: buffer, read-out: Therm_solubility
The following molecules are shown together with reported solubility thermodynamic values.
Use µg/mL as the unit, but write only the number.

Ask: Which solubility thermodynamic value is on record for `C[C@@](CCn1ccc(-c2ccccc2)cc1=O)(C(=O)NO)S(C)(=O)=O` ?
Result: 480

Ask: Quick one: `C[C@@](CCn1ccc(-c2ccc(-n3nccn3)cc2)cc1=O)(C(=O)NO)S(C)(=O)=O`
Result: 9.2

Ask: Further, for `COc1ccc(-c2ccn(CC[C@](C)(C(=O)NO)S(C)(=O)=O)c(=O)c2)c(F)c1` ?
Result: 130

// switching to the query molecule
Ask: # get_value(readout='solubility thermodynamic', item= `C[C@@](CCc1ccc(-c2ccccc2)cc1)(C(=O)NO)S(C)(=O)=O` )
Result: 3.9

----------
Assay: Fraction unbound in rat plasma relative to untreated control
Format: ADME, cell-free
ASSAY ENDPOINT: fraction unbound
Number only, please.

Some entries whose results are on file:
Ask: Could you share which fraction unbound value was measured for `COc1ccc(-c2ccn(CC[C@](C)(C(=O)NO)S(C)(=O)=O)c(=O)c2)c(F)c1` ?
Result: 0.32

Ask: Note, next up: `C[C@@](CCn1ccc(-c2ccccc2)cc1=O)(C(=O)NO)S(C)(=O)=O`
Result: 0.28

Ask: Now the molecule `C[C@@](CCn1ccc(-c2ccc(-n3nccn3)cc2)cc1=O)(C(=O)NO)S(C)(=O)=O`
Result: 0.13

Next molecule, please.
Ask: // fraction unbound lookup, key: `C[C@@](CCc1ccc(-c2ccccc2)cc1)(C(=O)NO)S(C)(=O)=O`
Result: 0.026

Hey, just so you know, these numbers are from ChEMBL document CHEMBL2021790.
